Reported viability, T/C by item:
# System: 439559-082-T-J2-PDC spheroids viability
# protocol.summary: Anticancer human tumor 439559-082-T-J2-PDC patient-derived colon adenocarcinoma cell line growth inhibition [GQUAD]
# measurement.parameters: second compound 1 µM; first compound 0.316 µM; active compounds read low
Give the value in % but do not write % after it.

Answered examples (2):
1. CCc1c2c(nc3ccc(O)cc13)-c1cc3c(c(=O)n1C2)COC(=O)[C@]3(O)CC + CN(C)c1ccc(Nc2c3ccc(NC(=O)CCN4CCCC4)cc3nc3cc(NC(=O)CCN4CCCC4)ccc23)cc1 = 43.9
2. O=C(c1cc(Cc2n[nH]c(=O)c3ccccc23)ccc1F)N1CCN(C(=O)C2CC2)CC1 + Cc1cnc(CNC(=O)c2c(=O)c3ccc(N4CCCN(C)CC4)nc3n3c2sc2ccccc23)cn1 = 72.5

Which value of viability, T/C has been reported for Cc1[nH]c2ccccc2c1CCNCc1ccc(/C=C/C(=O)NO)cc1 + Cc1[nH]c2ccc(F)cc2c1-c1nc2c3cccnc3c3ncccc3c2[nH]1 in the records?
91.3

###

# Test system: 439559-082-T-J2-PDC spheroids viability
# protocol.summary: Anticancer human tumor 439559-082-T-J2-PDC cell line growth inhibition [GQUAD];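 note: spheroids exposed to the agents for 7 days before readout; percent of luminescence signal in DMSO vehicle wells taken as 100% viability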
# measurement.parameters: second compound 1 µM; first compound 0.316 µM; active compounds read low
Mark each entry 1 (yes) if its viability, T/C sits below 80%, and 0 (no) for all others.

Examples from the recorded data:
1. Nc1ccn(C2OC(CO)C(O)C2(F)F)c(=O)n1 (stereo not given) + Cc1cnc(CNC(=O)c2c(=O)c3ccc(N4CCCN(C)CC4)nc3n3c2sc2ccccc23)cn1 = 1 (yes)
2. O=C(NO)c1cnc(N2CCN(S(=O)(=O)c3ccc4ccccc4c3)CC2)nc1 + CN(C)c1ccc(Nc2c3ccc(NC(=O)CCN4CCCC4)cc3nc3cc(NC(=O)CCN4CCCC4)ccc23)cc1 = 1 (yes)
3. CC(C)n1c(=O)n(C)c2cnc3cc(F)c(-c4ccc(OCCCN5CCCCC5)nc4)cc3c21 + CN(C)c1ccc(Nc2c3ccc(NC(=O)CCN4CCCC4)cc3nc3cc(NC(=O)CCN4CCCC4)ccc23)cc1 = 0 (no)
4. C#Cc1c(F)ccc2cc(O)cc(-c3ncc4c(N5CC6CCC(C5)N6)nc(OCC56CCCN5CC(F)C6)nc4c3F)c12 (stereo not given) + CN(C)c1ccc(Nc2c3ccc(NC(=O)CCN4CCCC4)cc3nc3cc(NC(=O)CCN4CCCC4)ccc23)cc1 = 1 (yes)
5. O=c1[nH]cc(F)c(=O)[nH]1 + Cc1cnc(CNC(=O)c2c(=O)c3ccc(N4CCCN(C)CC4)nc3n3c2sc2ccccc23)cn1 = 1 (yes)

viability, T/C under 80%? Item: C=CC(=O)N1CCN(c2nc(=O)n(-c3c(C)ccnc3C(C)C)c3nc(-c4c(O)cccc4F)c(F)cc23)C(C)C1 (stereo not given) + CN(C)c1ccc(Nc2c3ccc(NC(=O)CCN4CCCC4)cc3nc3cc(NC(=O)CCN4CCCC4)ccc23)cc1
0 (no)

Here's an entry: O=C(c1cc(Cc2n[nH]c(=O)c3ccccc23)ccc1F)N1CCN(C(=O)C2CC2)CC1 + CN(C)c1ccc(Nc2c3ccc(NC(=O)CCN4CCCC4)cc3nc3cc(NC(=O)CCN4CCCC4)ccc23)cc1 . Is its viability, T/C below 80%?
0 (no)

Lab note: confirm whether the reported viability, T/C for this molecule is below 80%, equality not counting. molecule: O=C(c1cc(Cc2n[nH]c(=O)c3ccccc23)ccc1F)N1CCN(C(=O)C2CC2)CC1 + Cc1[nH]c2ccc(F)cc2c1-c1nc2c3cccnc3c3ncccc3c2[nH]1
0 (no)
